Values from ChEMBL document CHEMBL4033669

Please go through the items and note down their MST.
- Test system: Plasmodium berghei
- Assay Remarks: Antimalarial activity against Plasmodium berghei in Swiss mouse inoculated with parasite infected red blood cells assessed as mean survival time at 100 mg/kg/day, ip administered 4 hrs post infection on day 0, 1, 2 , 3
- Format: functional
Give bare numbers, in days.

Below, 4 compounds whose answers are already recorded.
{"Mol": "N=C(N)/N=C(\\N)SCCOc1cccc(Br)c1", "Observed Result": 25}
{"Mol": "N=C(N)/N=C(\\N)SCCCOc1ccc(Cl)c(Cl)c1", "Observed Result": 24}
{"Mol": "N=C(N)/N=C(\\N)SCCCOc1c(Cl)cc(Cl)cc1Cl", "Observed Result": 24}
{"Mol": "N=C(N)/N=C(\\N)SCc1cccc(CS/C(N)=N/C(=N)N)c1", "Observed Result": 20}

Hey, Plasmodium berghei data for N=C(N)/N=C(\N)SCCCOc1ccc(I)cc1 : MST came out at 26
